Origin of the recorded values: patent US20200131274A1

Parameter: koff. Scope: all listed entries.
# study.target: T1, recombinant human PSMA (R&D, cat. no. 4234-ZN) (human, UniProt Q04609 44-750)
# T1 construct: Bought protein; also called rhPSMA; Recombinant PMSA
# T1 sequence (Q04609 44-750 limits assumed): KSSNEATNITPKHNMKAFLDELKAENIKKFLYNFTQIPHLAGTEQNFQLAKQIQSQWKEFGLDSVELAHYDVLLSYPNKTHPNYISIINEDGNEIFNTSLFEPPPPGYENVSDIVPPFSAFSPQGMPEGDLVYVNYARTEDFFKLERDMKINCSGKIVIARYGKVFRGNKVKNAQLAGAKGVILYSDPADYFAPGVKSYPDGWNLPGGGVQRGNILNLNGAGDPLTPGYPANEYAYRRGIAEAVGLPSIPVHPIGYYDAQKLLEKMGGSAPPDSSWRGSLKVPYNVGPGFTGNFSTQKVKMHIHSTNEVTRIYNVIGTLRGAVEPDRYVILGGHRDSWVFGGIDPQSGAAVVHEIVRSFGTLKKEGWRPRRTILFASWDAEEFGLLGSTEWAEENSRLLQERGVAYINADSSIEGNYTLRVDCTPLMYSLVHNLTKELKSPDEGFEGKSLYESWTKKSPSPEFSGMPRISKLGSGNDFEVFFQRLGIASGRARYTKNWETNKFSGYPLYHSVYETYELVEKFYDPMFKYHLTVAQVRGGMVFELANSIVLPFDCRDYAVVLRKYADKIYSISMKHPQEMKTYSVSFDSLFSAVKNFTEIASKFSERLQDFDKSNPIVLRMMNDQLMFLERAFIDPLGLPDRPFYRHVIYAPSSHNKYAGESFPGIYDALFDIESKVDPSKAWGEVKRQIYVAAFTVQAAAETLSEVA
# procedure.summary: Octet RED384 BLI, PSMA on sensor, VH series from 0.375 ug/ml
parameter.measured: koff (s⁻¹)

INSERT INTO assay_data (binder, numeric_value) VALUES
  ('single VH domain antibody 1.14 (VHH, Human single VH domain antibody (Humabody)) VHH: EVQLLESGGGLVQPGGSLRLSCAASGFSFSSYALSWVRQAPGKGLEWVSSIGENNATTDYADVVKGRFTISRDNSKNTLYLQMNSLRVEDTAVYYCVKDGVHWGQGTLVTVSS', 0.000335),
  ('single VH domain antibody 1.18 (VHH, Human single VH domain antibody (Humabody)) VHH: EVQLLESGGGLVQPGGSLRLSCAASGFSFSSYALSWVRQAPGKGLEWVSSIGENNATTDYAASVKGRFTISRDNSKNTLYLQMNSLRVEDTAVYYCVKDGVHWGQGTLVTVSS', 0.000572),
  ('single VH domain antibody 1.11 (VHH, Human single VH domain antibody (Humabody)) VHH: EVQLLESGGGLVQPGGSLRLSCAASGFSFSSYALSWVRQAPGKGLEWVSSIGENNDTTDYADNVKGRFTISRDNSKNTLYLQMNSLRVEDTAVYYCVKDGVHWGQGTLVTVSS', 0.000495),
  ('single VH domain antibody 1.10 (VHH, Human single VH domain antibody (Humabody)) VHH: EVQLLESGGGLVQPGGSLRLSCAASGFSFSSYALSWVRQAPGKGLEWVSSIGENNATTDYADFVKGRFTISRDNSKNTLYLQMNSLRVEDTAVYYCVKDGVHWGQGTLVTVSS', 0.000418),
  ('single VH domain antibody 1.16 (VHH, Human single VH domain antibody (Humabody)) VHH: EVQLLESGGGLVQPGGSLRLSCAASGFSFSSYALSWVRQAPGKGLEWVSSIGENNHTTDYADTVKGRFTISRDNSKNTLYLQMNSLRVEDTAVYYCVKDGVHWGQGTLVTVSS', 0.000365),
  ('single VH domain antibody 1.8 (VHH, Human single VH domain antibody (Humabody)) VHH: EVQLLESGGGLVQPGGSLRLSCAASGFSFSSYAMSWVRQAPGKGLEWVSSIGENDGTTDYADSVKGRFTISRDNSKNTLYLQMNSLRVEDTAVYYCVKDGVHWGQGTLVTVSS', 0.00104);
